tested_on: ERα (purified full-length human ERα) (Homo sapiens, UniProt P03372)
Sequence (P03372 1-595): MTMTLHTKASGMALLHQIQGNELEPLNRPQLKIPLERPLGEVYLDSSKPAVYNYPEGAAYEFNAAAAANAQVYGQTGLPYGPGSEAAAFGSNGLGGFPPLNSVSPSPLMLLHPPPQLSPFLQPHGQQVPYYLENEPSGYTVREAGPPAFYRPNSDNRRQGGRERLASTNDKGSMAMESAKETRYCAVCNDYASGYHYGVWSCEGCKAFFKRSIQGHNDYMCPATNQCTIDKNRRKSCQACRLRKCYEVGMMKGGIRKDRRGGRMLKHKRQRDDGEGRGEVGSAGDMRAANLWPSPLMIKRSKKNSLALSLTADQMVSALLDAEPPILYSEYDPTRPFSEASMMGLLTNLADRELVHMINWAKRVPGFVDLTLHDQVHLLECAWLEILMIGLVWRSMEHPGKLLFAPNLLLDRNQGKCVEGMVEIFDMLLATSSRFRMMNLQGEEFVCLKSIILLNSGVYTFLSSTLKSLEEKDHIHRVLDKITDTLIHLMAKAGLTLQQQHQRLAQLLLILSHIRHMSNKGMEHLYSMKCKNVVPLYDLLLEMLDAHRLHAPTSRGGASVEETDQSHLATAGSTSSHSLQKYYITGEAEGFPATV
pIC50: −log10 of the molar value.
measurement_type: pIC50

Challenge: Report measured pIC50 on ERα (purified full-length human ERα) (Homo sapiens, UniProt P03372); entry: CCCCC(CC)COC(=O)c1ccccc1C(=O)OCC(CC)CCCC (stereo not shown)
Response given: ~3.30
